# System: RXF 393
# PROTOCOL: NCI tumour cell line growth inhibition, 48 h
Activity calls are given as the source filed them. Rule as the data show it: active = GI50 up to about 1.1 µM and inactive = higher.
QUANTITY_MEASURED: GI50

Before answering, review these 2 worked examples.
>>> measured("CC(NC(=O)Cc1ccccc1)NC(=O)C(C)C(=O)NCc1ccccc1 (stereo not drawn)")
"42.6 µM (inactive)"
>>> measured("Cc1cc(-c2ccccc2)cc2[n+]1CC=C2.[O-][Cl+3]([O-])([O-])[O-]")
"46.1 µM (inactive)"

Field: next compound
Ask | Any idea what GI50 was measured for `C=CCNC1=C2C[C@@H](C)C[C@H](OC)[C@H](O)[C@@H](C)/C=C(\C)[C@H](OC(N)=O)[C@@H](OC)/C=C\C=C(/C)C(=O)NC(=CC1=O)C2=O` ?
Reply | 0.0813 µM (active)

Source: ChEMBL document CHEMBL1201862
